Recorded selectivity ratio values for a group of compounds are listed next.
procedureText: Selectivity index, ratio of CC50 for African green monkey Vero cells to EC50 for Chikungunya virus 899 infected in African green monkey Vero cells
Type: toxicity, cell-based
measurementSetup: read-out: Ratio CC50/EC50
Lab note: jot down the number only; don't add units.

Here are 4 compounds together with their reported answers.
>>> reportedresult("CCOC(=O)c1c(CSc2ccccc2)n(C)c2cc(Br)c(O)c(CN(C)C)c12 [UMIFENOVIR]")
4.6
>>> reportedresult("Cn1c(C[S+]([O-])c2c(Cl)cccc2Cl)c(C(=O)OC(C)(C)C)c2cc(O)ccc21 (stereo not given)")
7.6
>>> reportedresult("Cn1c(CSc2ccc(C(F)(F)F)cc2)c(C(=O)OC(C)(C)C)c2cc(O)ccc21")
3.1
>>> reportedresult("Cn1c(C[S+]([O-])c2ccccc2C(F)(F)F)c(C(=O)OC(C)(C)C)c2cc(O)ccc21 (stereo not given)")
22

# ---- query compound ----
What value of measured selectivity ratio is listed for Cn1c(C[S+]([O-])c2ccccc2C(F)(F)F)c(C(=O)OC(C)(C)C)c2cc(O)c(Br)cc21 (stereo not given) ?
2.7
